# Test system: Saccharomyces cerevisiae;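 further: PSI is a weighted mean of sequencing reads over stability bins, variants kept only with over 10 reads, mCherry proximal and sfGFP distal, peptide attached via GGGS linker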
# assay-notes: protein stability index of tFT-peptide fusion (C-terminal peptide) (PSI (0-1 scale)); higher = more stable (slower turnover)
# conditions: genetic background: cdc53-1; temperature: 37 C
protein stability index overview
Just the number.

q: Looking for the measured protein stability index of SDVLVVWVFFCR , can you help?
a: 0.42

q: Look at this sequence and give its reported protein stability index. VCCSILFSAFLV
a: 0.655

q: Dear colleague, I am looking for the recorded protein stability index of the following sequence: RASLPSLFRSLL
a: 0.913

q: Look up protein stability index: KKKKRVKIQKKN
a: 0.707

q: # input sequence: KYKLYGIMIIEG ; wanted: its protein stability index
a: 0.464

More entries:
q: Entry GVGHAWHYFCVC : reported protein stability index = ?
a: 0.735

q: Name the recorded protein stability index for LSVYGFYKMPAG .
a: 0.527

q: Given the sequence FFASAAVHLVTC , what is its reported protein stability index?
a: 0.521

q: Requested field: protein stability index. Item: FRSMFLFLNLLF
a: 0.352

q: Returns the measured protein stability index for the input sequence. Input: CFFFPCFSFRFL
a: 0.448
